Readings of % Inhibition n=1 48h for the listed compounds
test system: G. duodenalis BRIS/91/HEPU/1279; assay: Primary Giardia screen at 10 µM (live-cell imaging, automated counting); assay type: cell-based, Giardia duodenalis; settings: 48 h, first singlicate assay
Provide a numeric answer, followed by its unit.

Worked examples, 5 compounds total:
compound | % Inhibition n=1 48h
Cn1c(=O)n(CC(=O)C(C)(C)C)c(=O)c2c1nc1oc(C(C)(C)C)cn12 | 18.6%
Cc1ccnc(N2CCCC(C(=O)N3CC=C(c4ccccc4)CC3)C2)n1 (stereo not drawn) | 57.6%
Cc1cccc(CC(=O)N2CCN(c3nc4cccnc4n(Cc4ccccc4)c3=O)CC2)c1 | 38.8%
O=C(NCCc1ccccn1)c1ccc2[nH]c3c(c2c1)CN(C(=O)C1CCC1)CC3 | 0.0%
CCC1CCCCN1C(=O)Cn1c(C(=O)OC)cc2occc21 (stereo not drawn) | 8.8%

Assign % Inhibition n=1 48h to the following record: `COc1ccc(-n2c(CN3CCN(S(=O)(=O)c4cc(C)ccc4C)CC3)nc3cccnc32)cc1` 13.7%

Assign % Inhibition n=1 48h to the following record: Cc1ccc(CNC(=O)N2CCN(C3=CC4=NCC(C)N4C=N3)CC2)cc1 (stereo not drawn) 11.9%

Assign % Inhibition n=1 48h to the following record: NCC1CN(C2CC2)CCO1 (stereo not drawn) 23.7%

Assign % Inhibition n=1 48h to the following record: `O=C1c2ccccc2C(=O)N1CC(=O)n1nc(-c2cccnc2)nc1NCc1cccs1` 3.6%

Where these numbers come from: paper PMC9775191
